protocol-description: Pro-inflammatory activity in Sprague-Dawley rat assessed as induction of neutrophilia at 1000 ug/kg, it administered as dry powder with lactose carrier through Penn-Century insufflator
run-parameters: in vivo, inhaled_or_intranasal, 1 mg/kg
Below: a set of entries, each annotated with reported fold change (FC).

- input-smiles: "CCn1nc(-c2cccc(-c3cccc(C(=O)NCCN4CCCCC4)c3)c2)cc(NC(=O)Nc2c(Cl)cncc2Cl)c1=O"
  fold change (FC): 1.1
- input-smiles: "CCn1nc(-c2cccc(-c3cccc(C(=O)NCCN(C)C)c3)c2)cc(NC(=O)Nc2c(Cl)cncc2Cl)c1=O"
  fold change (FC): 3.2
- input-smiles: "CCn1nc(-c2cccc(-c3cccc(C(=O)NC4CC4)c3)c2)cc(NC(=O)Nc2c(Cl)cncc2Cl)c1=O"
  fold change (FC): 1
- input-smiles: "CCn1nc(-c2cccc(-c3ccc(CC(=O)NCCCCCCCN(C)CCO)cc3)c2)cc(NC(=O)Nc2c(Cl)cncc2Cl)c1=O"
  fold change (FC): 1.9
- input-smiles: "CCn1nc(-c2cccc(-c3cccc(C(=O)NCCN4CCOCC4)c3)c2)cc(NC(=O)Nc2c(Cl)cncc2Cl)c1=O"
  fold change (FC): 1.1

###

protocol-description: Drug metabolism in human liver S9 fraction assessed as sulfonation in presence of PAPS and UDPGA incubated for 20 mins
Format: ADME, subcellular
run-parameters: read-out: Drug metabolism
metric-name: metabolised at 20 min (%)

- input-smiles: "CCn1nc(-c2cccc(-c3cncc(O)c3)c2)cc(NC(=O)Nc2c(Cl)cncc2Cl)c1=O"
  experimental-result: 16
- input-smiles: "CCn1nc(-c2cccc(-c3cccc(O)c3)c2)cc(NC(=O)Nc2c(Cl)cncc2Cl)c1=O"
  experimental-result: 3
- input-smiles: "CCn1nc(-c2cccc(-c3ccc(O)c(F)c3)c2)cc(NC(=O)Nc2c(Cl)cncc2Cl)c1=O"
  experimental-result: 3
- input-smiles: "CCn1nc(-c2cccc(-c3ccc(O)cc3)c2)cc(NC(=O)Nc2c(Cl)cncc2Cl)c1=O"
  experimental-result: 0.3

###

protocol-description: Inhibition of PDE4 in PBMC (unknown origin) assessed as reduction in LPS-induced TNFalpha production incubated for 24 hrs by ELISA
run-parameters: Homo sapiens
Reported IC50 is given for each of the following molecules.
metric-name: IC50 (nM)

- input-smiles: "CCn1nc(-c2cccc(-c3ccc(O)cc3)c2)cc(NC(=O)Nc2c(Cl)cncc2Cl)c1=O"
  experimental-result: 0.9
- input-smiles: "CCOc1cc(C(=O)NC2CC2)cc(-c2cccc(-c3cc(NC(=O)Nc4c(Cl)cncc4Cl)c(=O)n(CC)n3)c2)c1"
  experimental-result: 0.24
- input-smiles: "CCn1nc(-c2cccc(-c3cccc(C(N)=O)c3)c2)cc(NC(=O)Nc2c(Cl)cncc2Cl)c1=O"
  experimental-result: 0.09
- input-smiles: "CCn1nc(-c2cccc(-c3cccc(C(=O)NC4CC4)c3)c2)cc(NC(=O)Nc2c(Cl)cncc2Cl)c1=O"
  experimental-result: 0.3
- input-smiles: "CCn1nc(-c2cccc(Br)c2)cc(NC(=O)Nc2c(Cl)cncc2Cl)c1=O"
  experimental-result: 3.7
- input-smiles: "CCn1nc(-c2cccc(-c3cccc(O)c3F)c2)cc(NC(=O)Nc2c(Cl)cncc2Cl)c1=O"
  experimental-result: 0.8
- input-smiles: "CCn1nc(-c2cccc(-c3ccc(O)cc3F)c2)cc(NC(=O)Nc2c(Cl)cncc2Cl)c1=O"
  experimental-result: 2.9
- input-smiles: "CCn1nc(-c2cccc(-c3cc(C(=O)NC4CC4)cc(C(=O)NC4CCN(Cc5ccccc5)CC4)c3)c2)cc(NC(=O)Nc2c(Cl)cncc2Cl)c1=O"
  experimental-result: 0.29

###

System: Rattus norvegicus
protocol-description: Anti-inflammatory activity in Sprague-Dawley rat assessed as inhibition of LPS-induced neutrophilia at 1000 ug/kg, it administered as dry powder with lactose carrier through Penn-Century insufflator dosed 18 hrs before LPS challenge and measured 22 hrs post dose
Type: functional
Measured inhibition in vivo at 1 mg/kg, listed per entry.

- input-smiles: "CCn1nc(-c2cccc(-c3ccc(C(=O)O)cc3)c2)cc(NC(=O)Nc2c(Cl)cncc2Cl)c1=O"
  inhibition in vivo at 1 mg/kg (%): 8
- input-smiles: "CCn1nc(-c2cccc(-c3cc(F)ccc3O)c2)cc(NC(=O)Nc2c(Cl)cncc2Cl)c1=O"
  inhibition in vivo at 1 mg/kg (%): 0
- input-smiles: "CCn1nc(-c2cccc(-c3cccc(C(=O)NC4CC4)c3)c2)cc(NC(=O)Nc2c(Cl)cncc2Cl)c1=O"
  inhibition in vivo at 1 mg/kg (%): 42
- input-smiles: "CCn1nc(-c2cccc(-c3cccc(C(N)=O)c3)c2)cc(NC(=O)Nc2c(Cl)cncc2Cl)c1=O"
  inhibition in vivo at 1 mg/kg (%): 15

###

protocol-description: Inhibition of PDE4 in PBMC (unknown origin) assessed as reduction in LPS-induced TNFalpha production incubated for 24 hrs by ELISA
run-parameters: Homo sapiens
pIC50: −log10 of the molar value.

- compound: "CCn1nc(-c2cccc(-c3cncc(C(=O)O)c3)c2)cc(NC(=O)Nc2c(Cl)cncc2Cl)c1=O"
  pIC50: 7.94
- compound: "CCn1nc(-c2cccc(-c3cccc(C(=O)NCCN4CCCCC4)c3)c2)cc(NC(=O)Nc2c(Cl)cncc2Cl)c1=O"
  pIC50: 9.37
- compound: "CCn1nc(-c2cccc(-c3cccc(C(=O)NCCN4CCOCC4)c3)c2)cc(NC(=O)Nc2c(Cl)cncc2Cl)c1=O"
  pIC50: 10.15
- compound: "CCn1nc(-c2cccc(-c3cc(C(=O)NCCCN(C)C)cc(C(=O)OC)c3)c2)cc(NC(=O)Nc2c(Cl)cncc2Cl)c1=O"
  pIC50: 10.30
- compound: "CCn1nc(-c2cccc(-c3cc(C(=O)NC4CC4)cc(C(=O)NC4CC4)c3)c2)cc(NC(=O)Nc2c(Cl)cncc2Cl)c1=O"
  pIC50: 9.40
- compound: "CCn1nc(-c2cccc(-c3cccc(C(=O)NCCC4CCCN4C)c3)c2)cc(NC(=O)Nc2c(Cl)cncc2Cl)c1=O (configuration not stated)"
  pIC50: 9.72
- compound: "CCn1nc(-c2cccc(-c3cc(C(=O)NCCN4CCCCC4)cc(C(=O)NC4CC4)c3)c2)cc(NC(=O)Nc2c(Cl)cncc2Cl)c1=O"
  pIC50: 9.46

###

protocol-description: Drug metabolism in human liver S9 fraction assessed as glucuronidation in presence of PAPS and UDPGA incubated for 20 mins
Format: ADME, subcellular
run-parameters: read-out: Drug metabolism

- input-smiles: "CCn1nc(-c2cccc(-c3cccc(CC(=O)O)c3)c2)cc(NC(=O)Nc2c(Cl)cncc2Cl)c1=O"
  metabolised at 20 min, %: 56
- input-smiles: "CCn1nc(-c2cccc(-c3ccc(O)c(F)c3)c2)cc(NC(=O)Nc2c(Cl)cncc2Cl)c1=O"
  metabolised at 20 min, %: 6
- input-smiles: "CCn1nc(-c2cccc(-c3ccc(C(=O)O)cc3)c2)cc(NC(=O)Nc2c(Cl)cncc2Cl)c1=O"
  metabolised at 20 min, %: 0
- input-smiles: "CCn1nc(-c2cccc(-c3cncc(C(=O)O)c3)c2)cc(NC(=O)Nc2c(Cl)cncc2Cl)c1=O"
  metabolised at 20 min, %: 35

###

Tested on: Rattus norvegicus
protocol-description: Anti-inflammatory activity in Sprague-Dawley rat assessed as inhibition of LPS-induced neutrophilia at 10 to 1000 ug/kg, it administered as suspension with Penn-Century micro-sprayer aerosolizer dosed 1 hrs before LPS challenge and measured 5 hrs post dose
Assay type: functional
run-parameters: inhaled or nasal
ED50 class ranges: c1 = under 0.03 mg/kg, c2 = from 0.03 mg/kg up to 0.1 mg/kg, c3 = 0.1 mg/kg and over

- input-smiles: "CCn1nc(-c2cccc(-c3cccc(C(=O)NCCN(C)C)c3)c2)cc(NC(=O)Nc2c(Cl)cncc2Cl)c1=O"
  group-label: "c1"
- input-smiles: "CCn1nc(-c2cccc(-c3ccc(O)c(F)c3)c2)cc(NC(=O)Nc2c(Cl)cncc2Cl)c1=O"
  group-label: "c3"
- input-smiles: "CCn1nc(-c2cccc(-c3cccc(O)c3)c2)cc(NC(=O)Nc2c(Cl)cncc2Cl)c1=O"
  group-label: "c3"
- input-smiles: "CCNC(=O)c1cc(C(=O)NCCCN(C)C)cc(-c2cccc(-c3cc(NC(=O)Nc4c(Cl)cncc4Cl)c(=O)n(CC)n3)c2)c1"
  group-label: "c1"
- input-smiles: "CCn1nc(-c2cccc(-c3cccc(C(=O)NC4CC4)c3)c2)cc(NC(=O)Nc2c(Cl)cncc2Cl)c1=O"
  group-label: "c1"
- input-smiles: "CCn1nc(-c2cccc(-c3ccc(CC(=O)NCCN4CCCCC4)cc3)c2)cc(NC(=O)Nc2c(Cl)cncc2Cl)c1=O"
  group-label: "c2"
- input-smiles: "CCn1nc(-c2cccc(-c3cc(C(=O)NC4CC4)cc(C(=O)NC4CCN(Cc5ccccc5)CC4)c3)c2)cc(NC(=O)Nc2c(Cl)cncc2Cl)c1=O"
  group-label: "c1"
- input-smiles: "O=C(Nc1c(Cl)cncc1Cl)c1ccc(OC(F)F)c(OCC2CC2)c1"
  group-label: "c3"
- input-smiles: "CCn1nc(-c2cccc(-c3ccc(CC(=O)O)cc3)c2)cc(NC(=O)Nc2c(Cl)cncc2Cl)c1=O"
  group-label: "c3"
- input-smiles: "CCn1nc(-c2cccc(-c3cccc(C(N)=O)c3)c2)cc(NC(=O)Nc2c(Cl)cncc2Cl)c1=O"
  group-label: "c2"

Origin of values: ChEMBL document CHEMBL3862036
